B1: TPR 5TU (parent)
chain: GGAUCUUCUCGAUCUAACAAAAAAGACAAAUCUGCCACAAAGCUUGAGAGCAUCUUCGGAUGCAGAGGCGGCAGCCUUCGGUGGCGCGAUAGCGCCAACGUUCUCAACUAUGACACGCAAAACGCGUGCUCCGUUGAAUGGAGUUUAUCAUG

Variants of: B1
Test: polymerase ribozyme fitness, log enrichment relative to wild type (log ratio); higher = more active; in vitro selection for triplet polymerase activity
Variants at the floor of the assay were thinned out.
endpoint-name: polymerase ribozyme fitness (log ratio)
No unit in the answer, please; the number alone is enough.

Before answering, review these 3 worked examples.
mutations	polymerase ribozyme fitness (log ratio)
G11U C93U A115G	-2.88
U55A G68A	-3.21
C5A U45G C85U A115U G141U	-3.86

Task: Request the reported polymerase ribozyme fitness (log ratio) associated with U6A G86C
Output: -2.98

Task: # lookup: polymerase ribozyme fitness (log ratio) of A49G G50C C95U A98G U145G
Output: -2.77

Task: Name the recorded polymerase ribozyme fitness (log ratio) for G81C C132G .
Output: -3.75

Task: Dear colleague, I am looking for the recorded polymerase ribozyme fitness (log ratio) of the following variant: C35A C95A A107G G143U
Output: -3.95

Task: # polymerase ribozyme fitness (log ratio) lookup, item A3C C85U G141C
Output: -2.07
